Parameter Fungi, Initial: see the listing below.
System: Fungi
Assay: Antimicrobial Effectiveness Testing (USP 24) of preserved cosmetic formulations, count of fungi
Format: cell-based, Aspergillus niger ATCC 16404
Settings: Example 3, water in oil emulsion with non-ionic emulsifier; 0 hours

Below: 2 molecules and their reported Fungi, Initial.
OCCOc1ccccc1	4.2 · 10^4
ClC=CC[N+]12CN3CN(CN(C3)C1)C2.[Cl-]	3.8 · 10^4

Fill in: Fungi, Initial of CC1(C)C(=O)N(CO)C(=O)N1CO is ___
6.4 · 10^4

Then this molecule: CCCCCCCCCCCC(=O)NC(CCCNC(=N)N)C(=O)OCC.Cl (centres unmarked)
1.0 · 10^5

Then this molecule: O=[N+]([O-])C(Br)(CO)CO
3.5 · 10^4

###

Tested on: Fungi
Test: Antimicrobial Effectiveness Testing (USP 24) of preserved cosmetic formulations, count of fungi
Type: cell-based, Aspergillus niger ATCC 16404
Settings: Example 1, oil in water emulsion with non-ionic surfactant; 7 days
Parameter Fungi, 7 days: see the listing below.

Below: 4 molecules and their reported Fungi, 7 days.
O=[N+]([O-])C(Br)(CO)CO [compound 2]	1.2 · 10^3
OCCOc1ccccc1 [compound 5]	1.3 · 10^3
CC1(C)C(=O)N(CO)C(=O)N1CO [compound 4]	3.2 · 10^3
CCCCCCCCCCCC(=O)NC(CCCNC(=N)N)C(=O)OCC.Cl (centres unmarked) [compound 1]	8.9 · 10^2

--- query ---
Fill in: Fungi, 7 days of ClC=CC[N+]12CN3CN(CN(C3)C1)C2.[Cl-] [compound 8] is ___
1.3 · 10^3

###

Tested on: Aerobes
Test: Antimicrobial Effectiveness Testing (USP 24) of preserved cosmetic formulations, count of aerobes
Format: cell-based
Details: Example 2, oil in water emulsion with ionic emulsifier; 14 days
parameter: Aerobes, 14 days

Below: 4 compounds and their reported Aerobes, 14 days.
ClC=CC[N+]12CN3CN(CN(C3)C1)C2.[Cl-]	9.8 · 10^2
O=[N+]([O-])C(Br)(CO)CO	3.8 · 10^3
CC1(C)C(=O)N(CO)C(=O)N1CO	8.7 · 10^2
OCCOc1ccccc1	1.8 · 10^3

--- query ---
Fill in: Aerobes, 14 days of CCCCCCCCCCCC(=O)NC(CCCNC(=N)N)C(=O)OCC.Cl (centres unmarked) is ___
6.5 · 10^2

###

Test system: Fungi
Assay: Antimicrobial Effectiveness Testing (USP 24) of preserved cosmetic formulations, count of fungi
Type: cell-based, Aspergillus niger ATCC 16404
Conditions: Example 2, oil in water emulsion with ionic emulsifier; 14 days
parameter: Fungi, 14 days

CCCCCCCCCCCC(=O)NC(CCCNC(=N)N)C(=O)OCC.Cl (centres unmarked) [compound 1]	2.8 · 10^2
O=[N+]([O-])C(Br)(CO)CO [compound 2]	1.1 · 10^2
ClC=CC[N+]12CN3CN(CN(C3)C1)C2.[Cl-] [compound 8]	<9.9 · 10^1
CC1(C)C(=O)N(CO)C(=O)N1CO [compound 4]	2.7 · 10^2

--- query ---
Fill in: Fungi, 14 days of OCCOc1ccccc1 [compound 5] is ___
3.4 · 10^2

###

System: Yeast
Experiment: Antimicrobial Effectiveness Testing (USP 24) of preserved cosmetic formulations, count of yeast
Format: cell-based, Candida albicans ATCC 10231
Settings: Example 3, water in oil emulsion with non-ionic emulsifier; 0 hours
Parameter Yeast, Initial: see the listing below.

Below: 4 molecules and their reported Yeast, Initial.
ClC=CC[N+]12CN3CN(CN(C3)C1)C2.[Cl-] [compound 8]	5.9 · 10^4
OCCOc1ccccc1 [compound 5]	5.3 · 10^4
CCCCCCCCCCCC(=O)NC(CCCNC(=N)N)C(=O)OCC.Cl (centres unmarked) [compound 1]	7.0 · 10^4
CC1(C)C(=O)N(CO)C(=O)N1CO [compound 4]	4.8 · 10^4

Fill in: Yeast, Initial of O=[N+]([O-])C(Br)(CO)CO [compound 2] is ___
5.9 · 10^4
